target: CCK receptor (pancreas) (Rattus norvegicus, UniProt P30551); construct: The whole pancreas was dissected free of fat tissue and was homogenized; assay: biochemical; conditions: rat pancreas membranes, 50 pM 125I-CCK-8, 25°C 2 hours
Sequence (P30551 whole entry): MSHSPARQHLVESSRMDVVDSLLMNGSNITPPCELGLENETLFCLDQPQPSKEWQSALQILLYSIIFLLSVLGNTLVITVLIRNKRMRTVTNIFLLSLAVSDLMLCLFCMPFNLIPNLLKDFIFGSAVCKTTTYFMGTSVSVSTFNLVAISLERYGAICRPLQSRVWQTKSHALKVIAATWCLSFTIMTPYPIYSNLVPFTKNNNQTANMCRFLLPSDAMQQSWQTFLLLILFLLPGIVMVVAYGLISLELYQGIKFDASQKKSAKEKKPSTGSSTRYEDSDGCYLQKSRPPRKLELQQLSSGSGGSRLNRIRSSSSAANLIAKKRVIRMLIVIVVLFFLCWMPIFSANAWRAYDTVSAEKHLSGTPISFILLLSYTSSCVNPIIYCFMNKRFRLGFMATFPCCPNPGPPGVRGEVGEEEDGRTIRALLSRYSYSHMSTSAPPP

- Molecule: "CN1C(=O)C(NC(=O)Nc2cccc(S(=O)(=O)Nc3nccs3)c2)N=C(C2CCCCC2)c2ccccc21 (racemic) [Example 26]"
  IC50, µM: 0.06
- Molecule: "CN1C(=O)C(NC(=O)Nc2cccc(S(=O)(=O)Nc3nncs3)c2)N=C(C2CCCCC2)c2ccccc21 (racemic) [Example 21]"
  IC50, µM: 0.0097
- Molecule: "CN1C(=O)C(NC(=O)Nc2cccc(C(=O)NS(C)(=O)=O)c2)N=C(C2CCCCC2)c2ccccc21 (racemic) [Example 16]"
  IC50, µM: 0.002
- Molecule: "CN1C(=O)C(NC(=O)Nc2cccc(C(=O)NS(=O)(=O)c3ccccc3)c2)N=C(C2CCCCC2)c2ccccc21 (racemic) [Example 14]"
  IC50, µM: 0.0111
- Molecule: "CC(C)C(=O)NS(=O)(=O)c1cccc(NC(=O)NC2N=C(C3CCCCC3)c3ccccc3N(C)C2=O)c1 (racemic) [Example 11]"
  IC50, µM: 0.118
- Molecule: "CC(C)S(=O)(=O)NC(=O)c1cccc(NC(=O)NC2N=C(C3CCCCC3)c3ccccc3N(C)C2=O)c1 (racemic) [Example 12]"
  IC50, µM: 0.0124
- Molecule: "CCN1C(=O)C(NC(=O)Nc2cccc(-c3nn[nH]n3)c2)N=C(C2CCCC2)c2ccccc21 (racemic) [Example 5]"
  IC50, µM: 0.14
- Molecule: "CC(C)CN1C(=O)C(NC(=O)Nc2cccc(-c3nn[nH]n3)c2)N=C(C2CCCC2)c2ccccc21 (racemic) [Example 3]"
  IC50, µM: 0.8
- Molecule: "CC(C)S(=O)(=O)NC(=O)c1cccc(NC(=O)NC2N=C(C3CCCCC3)c3ccccc3N(C)C2=O)c1 (single isomer, unassigned) [24 (Peak A)]"
  IC50, µM: 1.18
- Molecule: "CN1C(=O)[C@@H](NC(=O)Nc2cccc(C(=O)NS(=O)(=O)c3ccccc3)c2)N=C(C2CCCCC2)c2ccccc21 [Example 35]"
  IC50, µM: 0.0102
- Molecule: "CCCN1C(=O)C(NC(=O)Nc2cccc(-c3nn[nH]n3)c2)N=C(C2CCCC2)c2ccccc21 (racemic) [Example 6]"
  IC50, µM: 1.1
- Molecule: "CN1C(=O)C(NC(=O)Nc2cccc(S(=O)(=O)NC(=O)C(C)(C)C)c2)N=C(C2CCCCC2)c2ccccc21 (racemic) [Example 32]"
  IC50, µM: 0.61
- Molecule: "CN1C(=O)C(NC(=O)Nc2cccc(S(=O)(=O)NC(=O)C(F)(F)F)c2)N=C(C2CCCCC2)c2ccccc21 (racemic) [Example 17]"
  IC50, µM: 0.137

###

Reported log10(IC50) values for the following compounds.
target: CCK receptor (brain, cortex) (Cavia porcellus, UniProt H0VZC5); construct: the cortex was removed and homogenized in 25 mL ice-cold 0.32 M sucrose; from tissue; host or cells: guinea pig brain cortex P2 membrane pellet; test: biochemical; assay type: binding, guinea pig; settings: guinea pig cortex membranes, 50 pM 125I-CCK-8, 25°C 2 hours; read-out: IC50 ^125I-CCK Brain
Endpoint Name: log10(IC50) (log10 of the value in nM)

- Compound: "CCN1C(=O)C(NC(=O)Nc2cccc(-c3nn[nH]n3)c2)N=C(C2CCCC2)c2ccccc21 (racemic) [Example 5]"
  log10(IC50): -0.15
- Compound: "CN1C(=O)C(NC(=O)Nc2cccc(-c3nnn(C)n3)c2)N=C(C2CCCCC2)c2ccccc21 (racemic) [Example 28]"
  log10(IC50): 0.60
- Compound: "CN1C(=O)C(NC(=O)Nc2cccc(S(=O)(=O)NC(=O)C(F)(F)F)c2)N=C(C2CCCCC2)c2ccccc21 (racemic) [Example 17]"
  log10(IC50): -0.05
- Compound: "CCN1C(=O)C(NC(=O)Nc2cccc(C(=O)NS(C)(=O)=O)c2)N=C(C2CCCC2)c2ccccc21 (racemic) [Example 29]"
  log10(IC50): 0.80
- Compound: "CC(C)CN1C(=O)C(NC(=O)Nc2cccc(C(=O)NS(C)(=O)=O)c2)N=C(C2CCCCC2)c2ccccc21 (racemic) [Example 19]"
  log10(IC50): 1.08
- Compound: "CN1C(=O)C(NC(=O)Nc2cccc(-c3cc(=O)c(O)co3)c2)N=C(C2CCCCC2)c2ccccc21 (racemic) [Example 43]"
  log10(IC50): 0.32
- Compound: "CN1C(=O)[C@@H](NC(=O)Nc2cccc(C(=O)NS(=O)(=O)c3ccccc3)c2)N=C(C2CCCCC2)c2ccccc21 [Example 35]"
  log10(IC50): 1.71
- Compound: "CC(C)C(=O)NS(=O)(=O)c1cccc(NC(=O)NC2N=C(C3CCCCC3)c3ccccc3N(C)C2=O)c1 (racemic) [Example 11]"
  log10(IC50): -0.49
- Compound: "CN1C(=O)C(NC(=O)Nc2ccc3c(c2)C(=O)NS(=O)(=O)C3)N=C(C2CCCCC2)c2ccccc21 (racemic) [Example 44]"
  log10(IC50): 0.53
- Compound: "CCN1C(=O)C(NC(=O)Nc2cccc(C(=O)NS(=O)(=O)C(C)C)c2)N=C(C2CCCC2)c2ccccc21 (racemic) [Example 30]"
  log10(IC50): 0.51
- Compound: "CC(C)S(=O)(=O)NC(=O)c1cccc(NC(=O)NC2N=C(C3CCCC3)c3ccccc3N(C)C2=O)c1 (racemic) [Example 38]"
  log10(IC50): 0.83
- Compound: "Cc1ccc(NC(=O)N[C@@H]2N=C(C3CCCCC3)c3ccccc3N(C)C2=O)cc1C(=O)NS(C)(=O)=O [Example 34]"
  log10(IC50): 0.36
- Compound: "CN1C(=O)C(NC(=O)Nc2cccc(S(=O)(=O)NC(=O)C(C)(C)C)c2)N=C(C2CCCCC2)c2ccccc21 (racemic) [Example 32]"
  log10(IC50): 0.11
- Compound: "CC(C)CN1C(=O)C(NC(=O)Nc2cccc(-c3nn[nH]n3)c2)N=C(C2CCCCC2)c2ccccc21 (racemic) [Example 2]"
  log10(IC50): -0.38

###

target: Gastrin Receptor (Cavia porcellus); assay: Gastrin Receptor Binding in Guinea Pig Gastric Glands, 125I-gastrin; conditions: 0.1 nM 125I-gastrin, 25°C 30 minutes
Lab note: cut-off is 1 nM. Strictly less in IC50 is Satisfied. Exactly 1 nM or more is Not satisfied.

- Compound: "CC(=O)NS(=O)(=O)c1cccc(NC(=O)NC2N=C(C3CCCCC3)c3ccccc3N(C)C2=O)c1 (racemic) [Example 15]"
  Class Assignment: "Not satisfied"
- Compound: "Cc1cccc(NC(=O)NC2N=C(C3CCCCC3)c3ccccc3N(C)C2=O)c1 (racemic) [Example 1]"
  Class Assignment: "Satisfied"
- Compound: "Cc1cccc(NC(=O)NC2N=C(C3CCCCC3)c3ccccc3N(C)C2=O)c1 (single isomer, unassigned) [7 (Peak A)]"
  Class Assignment: "Satisfied"
- Compound: "CN1C(=O)C(NC(=O)Nc2cccc(-c3nn[nH]n3)c2)N=C(C2CCCCC2)c2ccccc21 (racemic) [Example 4]"
  Class Assignment: "Satisfied"
- Compound: "CC(C)S(=O)(=O)NC(=O)c1cccc(NC(=O)NC2N=C(C3CCCCC3)c3ccccc3N(C)C2=O)c1 (single isomer, unassigned) [24 (Peak A)]"
  Class Assignment: "Satisfied"
- Compound: "CN1C(=O)[C@H](NC(=O)Nc2cccc(C(=O)NS(=O)(=O)c3ccccc3)c2)N=C(C2CCCCC2)c2ccccc21 [Example 27]"
  Class Assignment: "Not satisfied"
- Compound: "CC(C)S(=O)(=O)NC(=O)c1cccc(NC(=O)NC2N=C(C3CCCCC3)c3ccccc3N(C)C2=O)c1 (racemic) [Example 12]"
  Class Assignment: "Not satisfied"
- Compound: "CN1C(=O)C(NC(=O)Nc2cccc(S(=O)(=O)NC(=O)C(F)(F)F)c2)N=C(C2CCCCC2)c2ccccc21 (racemic) [Example 17]"
  Class Assignment: "Not satisfied"
- Compound: "CCN1C(=O)C(NC(=O)Nc2cccc(S(=O)(=O)NC(C)=O)c2)N=C(C2CCCC2)c2ccccc21 (racemic) [Example 20]"
  Class Assignment: "Not satisfied"

###

Molecular target: CCK receptor (brain, cortex) (Cavia porcellus, UniProt H0VZC5)
Construct: the cortex was removed and homogenized in 25 mL ice-cold 0.32 M sucrose; from tissue; host or cells: guinea pig brain cortex P2 membrane pellet
Sequence (H0VZC5 1-426): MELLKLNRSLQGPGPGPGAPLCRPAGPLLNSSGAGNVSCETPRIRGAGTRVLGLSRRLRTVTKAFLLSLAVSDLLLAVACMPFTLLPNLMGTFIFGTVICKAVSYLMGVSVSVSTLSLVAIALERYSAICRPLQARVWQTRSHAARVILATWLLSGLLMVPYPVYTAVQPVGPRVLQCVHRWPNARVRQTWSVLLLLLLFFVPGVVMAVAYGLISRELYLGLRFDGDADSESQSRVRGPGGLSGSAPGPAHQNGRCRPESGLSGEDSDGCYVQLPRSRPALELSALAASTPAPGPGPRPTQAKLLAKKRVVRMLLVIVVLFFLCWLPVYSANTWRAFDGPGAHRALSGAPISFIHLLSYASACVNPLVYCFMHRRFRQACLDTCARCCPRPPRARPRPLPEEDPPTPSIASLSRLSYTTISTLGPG
Assay: biochemical
Type: binding, guinea pig
Conditions: guinea pig cortex membranes, 50 pM 125I-CCK-8, 25°C 2 hours; read-out: IC50 ^125I-CCK Brain
Lab note: cut-off is 1 nM. Strictly less in IC50 is criterion met. Exactly 1 nM or more is criterion not met.

- Compound: "CN1C(=O)C(NC(=O)Nc2cccc(-c3nn[nH]n3)c2)N=C(C2CCCC2)c2ccccc21 (racemic) [Example 8]"
  Class Assignment: "criterion not met"
- Compound: "Cc1cccc(NC(=O)NC2N=C(C3CCCCC3)c3ccccc3N(C)C2=O)c1 (single isomer, unassigned) [7 (Peak A)]"
  Class Assignment: "criterion met"
- Compound: "CCCN1C(=O)C(NC(=O)Nc2cccc(C(=O)NS(=O)(=O)C(C)(C)C)c2)N=C(C2CCCC2)c2ccccc21 (racemic) [Example 37]"
  Class Assignment: "criterion met"
- Compound: "CCCN1C(=O)C(NC(=O)Nc2cccc(-c3nn[nH]n3)c2)N=C(C2CCCC2)c2ccccc21 (racemic) [Example 6]"
  Class Assignment: "criterion met"
- Compound: "CCN1C(=O)C(NC(=O)Nc2cccc(S(=O)(=O)NC(C)=O)c2)N=C(C2CCCC2)c2ccccc21 (racemic) [Example 20]"
  Class Assignment: "criterion not met"
- Compound: "Cc1cccc(NC(=O)NC2N=C(C3CCCCC3)c3ccccc3N(C)C2=O)c1 (racemic) [Example 1]"
  Class Assignment: "criterion not met"
- Compound: "CN1C(=O)C(NC(=O)Nc2cccc(S(=O)(=O)Nc3nccs3)c2)N=C(C2CCCCC2)c2ccccc21 (racemic) [Example 26]"
  Class Assignment: "criterion not met"
